Tested on: Staphylococcus aureus ATCC 49951
Method: MIC by broth microdilution (CLSI) against Staphylococcus aureus ATCC 49951
Type: cell-based
Conditions: ATCC49951; Staphylococcus aureus ATCC 49951, in vitro; read-out: MIC
Structures can show the parent of a compound that is named as a salt.
Result Type: MIC (µg/mL)
Kindly answer with a numeric value in µg/mL, unit omitted.

# Molecule, Units Symbol, MIC
records = [
    ("C[C@@H]1CC[C@@]23CCC(=O)[C@H]2[C@]1(C)[C@H](OC(=O)CSC1CCN(C(=O)CN)CC1)C[C@](C)(CNCc1ccc(CN)cc1)[C@@H](O)[C@@H]3C [Example 78, trihydrochloride]", "µg/mL", 0.5),
]

Consider now this further molecule.
Q. Entry under review: C=C[C@]1(C)C[C@@H](OC(=O)CSCCN(CC)CC)[C@]2(C)[C@H](C)CC[C@]3(CCC(=O)[C@H]32)[C@@H](C)[C@@H]1O [Tiamulin, tiamulin, reference compound] . Reported MIC?
A. 0.5

All values here come from patent US9701628B2.
